experiment: Human pharmacokinetics, heart failure subjects, 7.5-hour continuous ascending dose IV infusion
measurement context: in vivo, read-out: effective half-life
result type: half-life

substance | result type | observed
H-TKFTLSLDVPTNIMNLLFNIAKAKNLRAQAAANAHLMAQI-NH2 [SEQ ID NO: 1] | half-life | 79.2 to 151 min

---

target desc: human CRHR2 (Homo sapiens)
Construct: expressed in transfected cells
Sequence (Q13324 whole entry): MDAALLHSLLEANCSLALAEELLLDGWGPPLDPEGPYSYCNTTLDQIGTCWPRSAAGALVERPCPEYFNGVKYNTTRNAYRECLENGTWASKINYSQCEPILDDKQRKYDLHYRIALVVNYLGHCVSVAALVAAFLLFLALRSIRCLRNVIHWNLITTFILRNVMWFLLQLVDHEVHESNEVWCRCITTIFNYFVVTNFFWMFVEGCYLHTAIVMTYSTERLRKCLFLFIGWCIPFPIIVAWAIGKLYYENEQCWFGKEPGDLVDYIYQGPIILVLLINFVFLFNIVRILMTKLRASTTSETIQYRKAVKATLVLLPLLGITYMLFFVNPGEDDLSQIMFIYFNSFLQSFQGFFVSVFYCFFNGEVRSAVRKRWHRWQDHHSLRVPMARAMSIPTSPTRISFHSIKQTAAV
experiment: cAMP assay, h-CRHR2 transfected SK-N-MC cells
Type: cell-based
measurement context: Table 13; cysteine mutation, N-ethylmaleimide capping, pegylation; read-out: pA50 (converted)
Where no end group is shown, it is not given here.
The label yes (1) is reserved for EC50 strictly under 1 nM; no (0) covers values equal to or above it.

substance | class name
TKFTLSLDVPTNIMNLLFNIAKACNLRAQAAANAHLMAQI-NH2 [SEQ ID NO: 25] | yes (1)
TKFTLSLDVPCNIMNLLFNIAKAKNLRAQAAANAHLMAQI-NH2 [SEQ ID NO: 12] | no (0)
TKFTLSLDVPTNIMNLLFNIAKAKNLRACAAANAHLMAQI-NH2 [SEQ ID NO: 30] | no (0)
TCFTLSLDVPTNIMNLLFNIAKAKNLRAQAAANAHLMAQI-NH2 [SEQ ID NO: 3] | no (0)
H-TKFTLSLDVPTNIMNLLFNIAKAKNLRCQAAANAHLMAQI-NH2 [SEQ ID NO: 29] | yes (1)
TKCTLSLDVPTNIMNLLFNIAKAKNLRAQAAANAHLMAQI-NH2 [SEQ ID NO: 4] | no (0)
TKFTLSLDVPTNIMNLLFNIAKAKNLRAQAAANAHLMACI-NH2 [SEQ ID NO: 40] | yes (1)
H-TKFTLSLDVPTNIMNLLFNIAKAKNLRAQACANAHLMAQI-NH2 [SEQ ID NO: 32] | yes (1)
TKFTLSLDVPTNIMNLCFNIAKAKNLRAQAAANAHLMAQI-NH2 [SEQ ID NO: 18] | no (0)
H-TKFTLSLDVPTNIMNLLFNIAKAKNLRAQAAANAHLMCQI-NH2 [SEQ ID NO: 39] | yes (1)
TKFTLSLDVPTCIMNLLFNIAKAKNLRAQAAANAHLMAQI-NH2 [SEQ ID NO: 13] | yes (1)
TKFTLSLDVPTNIMNLLFNIAKCKNLRAQAAANAHLMAQI-NH2 [SEQ ID NO: 24] | no (0)
TKFTLSLDVPTNIMNLLFNICKAKNLRAQAAANAHLMAQI-NH2 [SEQ ID NO: 22] | yes (1)
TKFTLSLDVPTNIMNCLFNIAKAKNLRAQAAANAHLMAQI-NH2 [SEQ ID NO: 17] | yes (1)
